Taken from patent US20240317683A1.

The reader will find IC50 measurements below, all made with CYP2D6 (Homo sapiens (Human), UniProt P10635).
Sequence (P10635 whole entry, looked up): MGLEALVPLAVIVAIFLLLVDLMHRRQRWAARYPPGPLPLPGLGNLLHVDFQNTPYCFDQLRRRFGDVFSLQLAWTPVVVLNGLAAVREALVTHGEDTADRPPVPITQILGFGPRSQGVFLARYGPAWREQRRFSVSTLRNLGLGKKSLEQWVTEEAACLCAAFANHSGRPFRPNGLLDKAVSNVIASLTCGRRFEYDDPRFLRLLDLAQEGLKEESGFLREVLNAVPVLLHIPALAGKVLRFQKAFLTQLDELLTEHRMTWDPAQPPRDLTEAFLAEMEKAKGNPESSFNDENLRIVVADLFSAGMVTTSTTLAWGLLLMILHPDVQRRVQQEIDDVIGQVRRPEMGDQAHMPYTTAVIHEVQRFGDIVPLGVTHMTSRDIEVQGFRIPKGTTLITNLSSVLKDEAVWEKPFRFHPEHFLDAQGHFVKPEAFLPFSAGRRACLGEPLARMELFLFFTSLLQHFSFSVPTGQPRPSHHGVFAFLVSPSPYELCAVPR
Structures can show the parent of a compound that is named as a salt.
Numbers only, in µM.

For orientation, consider the following solved cases.
>  <compound>
CCCN(CC)CCc1c[nH]c2ccc(F)cc12 [Compound 3, hydrochloride]

>  <value.unit>
µM

>  <recorded.measurement>
1.9

$$$$
>  <compound>
CCN(C)CCc1c[nH]c2cccc(O)c12

>  <value.unit>
µM

>  <recorded.measurement>
48.5

$$$$

Now look at this entry.
Query (compound): CCN(C)CCc1c[nH]c2ccccc12 ; field requested: IC50
31.5

----------
Assignment: determine reported inhibition at 10 min, 10 µM for the given molecules.
subject.of.test: CYP2C9 (Homo sapiens (Human), UniProt P11712)
Sequence (P11712 whole entry, looked up): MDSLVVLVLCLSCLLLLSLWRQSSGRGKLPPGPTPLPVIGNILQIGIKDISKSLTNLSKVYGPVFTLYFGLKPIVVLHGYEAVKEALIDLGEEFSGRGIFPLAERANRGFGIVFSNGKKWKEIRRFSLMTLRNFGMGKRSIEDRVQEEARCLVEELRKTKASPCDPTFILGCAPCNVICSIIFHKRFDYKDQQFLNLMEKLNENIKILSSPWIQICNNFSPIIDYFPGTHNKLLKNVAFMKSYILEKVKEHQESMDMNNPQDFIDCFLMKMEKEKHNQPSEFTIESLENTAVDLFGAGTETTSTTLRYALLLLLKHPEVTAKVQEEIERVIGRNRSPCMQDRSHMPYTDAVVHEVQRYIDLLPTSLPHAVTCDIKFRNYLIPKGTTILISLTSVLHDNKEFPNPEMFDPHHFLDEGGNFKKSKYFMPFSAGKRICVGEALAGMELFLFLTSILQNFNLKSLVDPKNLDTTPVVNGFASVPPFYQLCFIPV
test.summary: CYP inhibition in human liver microsomes, CYP2C9
Assay type: in vitro ADME
test.context: both sexes, human, pooled human liver microsomes, pH 7.4, probe diclofenac (5 μM); HLM, 10 μM, diclofenac substrate; read-out: CYP 2C9 % Inhibition at 10 μM
Answers are plain numbers, in %.

>  <smiles.text>
CCN(C)CCc1c[nH]c2ccccc12

>  <inhibition at 10 min, 10 µM / %>
0

$$$$

Now look at this entry.
API: value(readout=inhibition at 10 min, 10 µM, system=CYP2C9 (Homo sapiens (Human), UniProt P11712)) for record CCCN(CC)CCc1c[nH]c2ccccc12
0.1

----------
test.summary: Metabolic stability in rat liver microsomes (RLM)
Assay type: in vitro ADME
test.context: both sexes, pooled rat liver microsomes, pH 7.4, NADPH
Counter-ions that a name gives are not always drawn.
Assignment: determine reported microsomal CLint at 1 μM for the given compounds.
One number for each entry, in µL/min/mg.

>  <compound>
CCN(C)CCc1c[nH]c2ccccc12

>  <microsomal CLint at 1 μM / µL/min/mg>
1560

$$$$

For each entry beneath this line, provide reported microsomal CLint at 1 μM.
1. COc1ccc2[nH]cc(CCN(C)C)c2c1 [Compound 5-MeO-DMT, 5-methoxy-N,N-dimethyltryptamine, reference compound]
2. CCN(C)CCc1c[nH]c2cccc(O)c12
3. CCN(C)CCc1c[nH]c2ccc(F)cc12 [Compound 4, hydrochloride]
4. CN(C)CCc1c[nH]c2ccccc12 [DMT, N,N-dimethyltryptamine, reference compound]
5. CCCN(CC)CCc1c[nH]c2ccc(F)cc12 [Compound 3, hydrochloride]
6. CCCN(CC)CCc1c[nH]c2ccccc12
7. CN(C)CCc1c[nH]c2cccc(O)c12 [Psilocin, psilocin, reference compound]
8. CN(C)CCc1c[nH]c2ccc(F)cc12 [Compound 5, hydrochloride]

1. 98.8
2. 27.7
3. 229
4. 137
5. 428
6. 970
7. 18.3
8. 151

----------
test.summary: Pharmacokinetics in mice, plasma
Type: in vivo, C57BL/6 mice
test.context: male, C57BL/6; mouse plasma, SC, 10 mg/kg; read-out: Cmax
Counter-ions that a name gives are not always drawn.
Assignment: determine reported Cmax for the given molecules.
Give bare numbers, in ng/mL.

For orientation, consider the following solved cases.
>  <molecule>
CN(C)CCc1c[nH]c2ccc(F)cc12 [Compound 5, hydrochloride]

>  <readout.name>
Cmax

>  <recorded.measurement>
363

$$$$
>  <molecule>
CCN(C)CCc1c[nH]c2ccc(F)cc12 [Compound 4, hydrochloride]

>  <readout.name>
Cmax

>  <recorded.measurement>
631

$$$$

Now look at this entry.
Query (molecule): CCN(C)CCc1c[nH]c2cccc(O)c12 [Compound 6] ; field requested: Cmax
1160

----------
Assignment: determine reported Tmax for the given compounds.
test.summary: Pharmacokinetics in rats, brain
Assay type: in vivo, Sprague Dawley rats
test.context: male, Sprague Dawley; rat brain, SC, 10 mg/kg
Where a name gives a salt, the structure may show the parent alone.
Give bare numbers, in h.

For orientation, consider the following solved cases.
>  <compound>
CCN(C)CCc1c[nH]c2cccc(O)c12

>  <recorded.measurement>
2

$$$$
>  <compound>
CN(C)CCc1c[nH]c2ccc(F)cc12 [Compound 5, hydrochloride]

>  <recorded.measurement>
0.25

$$$$

Query (compound): CCN(C)CCc1c[nH]c2ccc(F)cc12 [Compound 4, hydrochloride] ; field requested: Tmax
1

----------
test.summary: Metabolic stability in human liver microsomes (HLM)
Assay type: in vitro ADME
test.context: both sexes, pooled human liver microsomes, pH 7.4, NADPH
Where a name gives a salt, the structure may show the parent alone.
Assignment: determine reported half-life at 1 μM for the given compounds.
Answers are plain numbers, in min.

>  <compound>
CN(C)CCc1c[nH]c2ccc(F)cc12 [Compound 5, hydrochloride]

>  <half-life at 1 μM / min>
4.6

$$$$
>  <compound>
CCCN(CC)CCc1c[nH]c2ccccc12

>  <half-life at 1 μM / min>
21.7

$$$$
>  <compound>
COc1ccc2[nH]cc(CCN(C)C)c2c1 [Compound 5-MeO-DMT, 5-methoxy-N,N-dimethyltryptamine, reference compound]

>  <half-life at 1 μM / min>
13.6

$$$$
>  <compound>
CN(C)CCc1c[nH]c2ccccc12 [DMT, N,N-dimethyltryptamine, reference compound]

>  <half-life at 1 μM / min>
7

$$$$
>  <compound>
CCCN(CC)CCc1c[nH]c2ccc(F)cc12 [Compound 3, hydrochloride]

>  <half-life at 1 μM / min>
13

$$$$
>  <compound>
CCN(C)CCc1c[nH]c2ccccc12

>  <half-life at 1 μM / min>
126

$$$$
>  <compound>
CN(C)CCc1c[nH]c2cccc(O)c12 [Psilocin, psilocin, reference compound]

>  <half-life at 1 μM / min>
110

$$$$

Query (compound): CCN(C)CCc1c[nH]c2ccc(F)cc12 [Compound 4, hydrochloride] ; field requested: half-life at 1 μM
47.9

----------
test.summary: Stability in mouse brain homogenate
Format: in vitro ADME, CD-1 mice
readout.name: stability in mouse brain homogenate (in words)

>  <smiles.text>
CCN(C)CCc1c[nH]c2cccc(O)c12

>  <recorded.measurement>
intermediate stability

$$$$
>  <smiles.text>
CCN(C)CCc1c[nH]c2ccccc12

>  <recorded.measurement>
intermediate stability

$$$$
